For each of the compounds below, state its pIC50.
Molecular target: UniProt P04150
Sequence (P04150 whole entry): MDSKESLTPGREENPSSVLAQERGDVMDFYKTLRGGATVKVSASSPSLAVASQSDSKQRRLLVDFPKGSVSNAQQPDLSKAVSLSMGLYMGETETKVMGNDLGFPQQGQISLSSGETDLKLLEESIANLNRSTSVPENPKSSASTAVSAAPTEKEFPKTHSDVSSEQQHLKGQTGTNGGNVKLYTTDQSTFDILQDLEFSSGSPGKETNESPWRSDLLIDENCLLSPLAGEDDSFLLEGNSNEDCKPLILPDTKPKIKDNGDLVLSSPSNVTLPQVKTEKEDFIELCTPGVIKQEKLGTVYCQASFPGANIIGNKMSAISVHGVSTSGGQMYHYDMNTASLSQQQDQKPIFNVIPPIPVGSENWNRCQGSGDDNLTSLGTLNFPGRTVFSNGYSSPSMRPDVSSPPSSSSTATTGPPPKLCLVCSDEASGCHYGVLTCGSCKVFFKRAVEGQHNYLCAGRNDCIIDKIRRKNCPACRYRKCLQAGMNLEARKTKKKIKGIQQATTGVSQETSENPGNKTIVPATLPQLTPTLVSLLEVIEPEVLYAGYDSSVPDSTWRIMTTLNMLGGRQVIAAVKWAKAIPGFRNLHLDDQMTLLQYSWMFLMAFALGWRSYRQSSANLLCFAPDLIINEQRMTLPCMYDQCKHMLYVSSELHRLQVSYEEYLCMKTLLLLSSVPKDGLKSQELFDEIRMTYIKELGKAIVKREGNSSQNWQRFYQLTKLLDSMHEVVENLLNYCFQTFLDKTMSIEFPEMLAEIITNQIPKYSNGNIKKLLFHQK
Experiment: Antagonist activity at glucocorticoid receptor expressed in human A549 cells assessed as inhibition of cortisol-induced renilla luciferase transactivation activity
pIC50 is defined as minus the log10 of a concentration measured in mol/L.

Inquiry: Given COc1cccc(-c2ccccc2CNC(=O)c2cnc3c(c(C)nn3C)c2Cl)c1 , respond with its pIC50.
Reply text: 6.70

Inquiry: Given Cc1nn(C)c2ncc(C(=O)NCc3ccc(Cl)c(C(F)(F)F)c3)c(Cl)c12 , respond with its pIC50.
Reply text: 7.20

Inquiry: Given Cc1ccccc1-n1nc(C)c2c(Cl)c(C(=O)NCc3ccc(-c4c(C)noc4C)cc3)cnc21 , respond with its pIC50.
Reply text: 6.10

====

target: UniProt:P04150; test: Antagonist activity at glucocorticoid receptor expressed in human A549 cells assessed as inhibition of cortisol-induced renilla luciferase transactivation activity
For each of the molecules below, state its pIC50.
pIC50 is defined as minus the log10 of a concentration measured in mol/L.

Inquiry: Given Cc1noc(C)c1-c1ccc(CNC(=O)c2cnc3c(cnn3C3CCCC3)c2Cl)cc1 , respond with its pIC50.
Reply text: 6.30

Inquiry: Given CCc1nn(C)c2ncc(C(=O)NCC3Cc4ccccc4C3)c(Cl)c12 , respond with its pIC50.
Reply text: 6.60

Inquiry: Given CCn1ncc2c(Cl)c(C(=O)NCc3cc(C)cc(C)c3)cnc21 , respond with its pIC50.
Reply text: 6.80

Inquiry: Given Cc1noc(C)c1-c1ccc(CNC(=O)c2cnc3c(cnn3Cc3ccccc3)c2Cl)cc1 , respond with its pIC50.
Reply text: 6.50

Inquiry: Given Cc1noc(C)c1-c1ccc(CNC(=O)c2cnc3c(c(C)nn3C(C)C)c2Cl)cc1 , respond with its pIC50.
Reply text: 6.60

Inquiry: Given Cc1noc(C)c1-c1ccc(CNC(=O)c2cnc3c(c(C)nn3Cc3ccccn3)c2Cl)cc1 , respond with its pIC50.
Reply text: 6.60

Inquiry: Given CCn1ncc2c(Cl)c(C(=O)NCc3cccc(C)c3)cnc21 , respond with its pIC50.
Reply text: 6.40
